Tested on: IGROV-1
TEST SUMMARY: NCI tumour cell line growth inhibition, 48 h
Calls of active or inactive are those of the source. Rule as the data show it: active = GI50 up to about 1.1 µM and inactive = higher.
Outcomes: true for active, false for inactive

- COMPOUND: "O=c1ccc2ccccc2c2ccccc12"
  CLASS LABEL: "false"
- COMPOUND: "COc1ccc(N/N=C/C2=CC(C)(C)C(C#N)(C#N)C(O)=C2C#N)cc1"
  CLASS LABEL: "false"
- COMPOUND: "COC(OC)(c1ccccc1)C(Br)Br"
  CLASS LABEL: "false"
- COMPOUND: "CC(=O)Oc1cc(OC(C)=O)c2c(C)cc(=O)oc2c1"
  CLASS LABEL: "false"
- COMPOUND: "O=C1CC2CC=C[C@H]3c4cc5c(cc4C(=O)N1C23)OCO5 (stereo not given in full)"
  CLASS LABEL: "false"
- COMPOUND: "Cc1ncc(CBr)c(CBr)c1O"
  CLASS LABEL: "false"
- COMPOUND: "OCCNCNc1nc(NCNCCO)nc(N(CNCCO)CNCCO)n1"
  CLASS LABEL: "false"
- COMPOUND: "COC1OC(C)C(OC(=O)C(C)(C)C)C(OS(=O)(=O)c2ccc(C)cc2)C1OS(=O)(=O)c1ccc(C)cc1 (stereo not given)"
  CLASS LABEL: "false"
- COMPOUND: "CCSC(=O)N1c2ccc(OC)cc2C=CC1C#N (stereo not given)"
  CLASS LABEL: "true"
- COMPOUND: "Oc1c(O)c(Cc2ccccc2)c(Cc2ccccc2)c(Cc2ccccc2)c1Cc1ccccc1"
  CLASS LABEL: "false"
- COMPOUND: "COc1ccc(/C=C2\\CN(C)Cc3c2nc(N)nc3-c2ccc(OC)cc2)cc1"
  CLASS LABEL: "false"
- COMPOUND: "Cc1c(N)nc(C2CC(=O)N2CC(N)C(N)=O)nc1C(=O)NC(C(=O)NC(C)C(O)C(C)C(=O)NC(C(=O)NCCc1nc(-c2nc(C(=O)NCCNCC(C)O)cs2)cs1)C(C)O)C(OC1OC(CO)C(O)C(O)C1OC1OC(CO)C(O)C(OC(N)=O)C1O)c1c[nH]cn1 (stereo not given)"
  CLASS LABEL: "false"
- COMPOUND: "C[C@@H](Br)[C@@H]1CC[C@H]2c3[nH]c4ccccc4c3CCN2C1"
  CLASS LABEL: "false"
- COMPOUND: "CN(C)C(=O)OC(Cn1cncn1)c1ccc(Cl)cc1Cl (stereo not given)"
  CLASS LABEL: "false"
- COMPOUND: "Cc1nc(C)c(C(=O)NNC(=O)c2ccccc2)cc1C(=O)NNC(=O)c1ccccc1"
  CLASS LABEL: "false"
- COMPOUND: "CC1=NN(C(=O)CC(=O)Nc2ccccc2Cl)C(=O)C1/N=N\\c1ccc(S(=O)(=O)c2ccc(/N=N/C3C(=O)N(C(=O)CC(=O)Nc4ccccc4Cl)N=C3C)cc2)cc1 (stereo not given)"
  CLASS LABEL: "false"
- COMPOUND: "Cc1ccc(-c2c(C#N)c(O)n(NS(=O)(=O)c3ccccc3)c(=O)c2C#N)cc1"
  CLASS LABEL: "false"
- COMPOUND: "CC1=CC(=O)C(=C(C)C)CC1"
  CLASS LABEL: "false"
- COMPOUND: "C=C1CC(Cn2cc(C)c(=O)[nH]c2=O)(c2ccc(-c3ccccc3)cc2)OC1=O (stereo not given)"
  CLASS LABEL: "false"
- COMPOUND: "Cc1c2c(OCC(O)CN3CCN(c4ccccc4)CC3)nn(C)c(=O)c2c(C)n1-c1ccccc1 (stereo not given)"
  CLASS LABEL: "false"
